Target: CDK18/Cyclin Y (Homo sapiens, UniProt Q07002)
Sequence (Q07002 whole entry): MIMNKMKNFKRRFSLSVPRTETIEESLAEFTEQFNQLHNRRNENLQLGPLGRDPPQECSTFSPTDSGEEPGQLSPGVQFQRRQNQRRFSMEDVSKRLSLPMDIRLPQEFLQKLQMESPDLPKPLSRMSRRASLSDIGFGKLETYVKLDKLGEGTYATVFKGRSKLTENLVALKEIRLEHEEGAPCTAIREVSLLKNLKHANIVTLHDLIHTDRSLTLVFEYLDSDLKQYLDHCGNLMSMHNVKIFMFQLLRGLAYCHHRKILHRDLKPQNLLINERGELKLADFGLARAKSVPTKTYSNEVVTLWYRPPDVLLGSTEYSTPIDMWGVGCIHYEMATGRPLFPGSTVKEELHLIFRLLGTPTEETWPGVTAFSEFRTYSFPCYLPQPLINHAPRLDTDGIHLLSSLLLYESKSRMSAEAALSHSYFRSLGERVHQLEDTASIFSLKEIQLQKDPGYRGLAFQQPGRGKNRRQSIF
Sequence (Q8ND76 whole entry partner): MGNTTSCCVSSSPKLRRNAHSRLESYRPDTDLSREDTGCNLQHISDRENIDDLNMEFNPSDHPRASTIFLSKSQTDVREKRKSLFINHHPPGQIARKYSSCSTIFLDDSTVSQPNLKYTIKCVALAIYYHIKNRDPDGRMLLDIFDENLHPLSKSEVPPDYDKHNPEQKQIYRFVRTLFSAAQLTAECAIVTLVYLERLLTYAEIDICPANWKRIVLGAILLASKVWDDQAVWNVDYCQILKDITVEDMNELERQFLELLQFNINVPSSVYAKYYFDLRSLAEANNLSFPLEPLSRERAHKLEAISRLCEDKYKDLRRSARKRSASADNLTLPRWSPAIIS
Assay: NanoBRET live-cell target engagement, CDK18-NanoLuc/Cyclin Y in HEK-293
Type: binding
Details: CDK18/Y; average
test.readout: Inhibition at 10µM (%)

compound: CC(C)c1c2cc(-c3ccnc(N[C@H]4CC[C@H](NC5CCOCC5)CC4)n3)ccc2nn1C
test.readout: Inhibition at 10µM (%)
unit.descriptor: %
experimental.result: 96.0
--
compound: CC(C)c1cnn2c(NCc3ccccc3-n3cccn3)nc(OC3CCCNC3)nc12 (centres unmarked)
test.readout: Inhibition at 10µM (%)
unit.descriptor: %
experimental.result: 97.4
--
compound: CCn1cnc2c(Nc3cccc(Cl)c3)nc(N[C@@H]3CCCC[C@@H]3N)nc21 [CGP74514A]
test.readout: Inhibition at 10µM (%)
unit.descriptor: %
experimental.result: 86.9
--
compound: CN1CCC(c2c(O)cc(O)c3c(=O)cc(-c4ccccc4Cl)oc23)C1CO (centres unmarked)
test.readout: Inhibition at 10µM (%)
unit.descriptor: %
experimental.result: 57.3
--
compound: CS(=O)(=O)N1CCC(NC(=O)c2[nH]ncc2NC(=O)c2c(Cl)cccc2Cl)CC1
test.readout: Inhibition at 10µM (%)
unit.descriptor: %
experimental.result: 97.0

----------
Target: CDK10/Cyclin L2 (Homo sapiens)
Sequence (Q15131 whole entry): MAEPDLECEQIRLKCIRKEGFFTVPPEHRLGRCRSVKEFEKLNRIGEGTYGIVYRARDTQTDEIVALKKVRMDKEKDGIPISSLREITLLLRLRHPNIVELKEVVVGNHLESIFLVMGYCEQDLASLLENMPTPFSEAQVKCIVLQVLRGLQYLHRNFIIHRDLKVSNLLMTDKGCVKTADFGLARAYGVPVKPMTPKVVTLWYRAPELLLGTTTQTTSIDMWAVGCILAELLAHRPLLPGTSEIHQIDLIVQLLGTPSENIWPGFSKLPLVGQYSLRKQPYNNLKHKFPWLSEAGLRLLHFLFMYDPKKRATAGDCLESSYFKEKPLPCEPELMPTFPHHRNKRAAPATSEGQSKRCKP
Assay: NanoBRET live-cell target engagement, CDK10-NanoLuc/Cyclin L2 in HEK-293
Conditions: read-out: Inhibition at 10µM (%), CDK10/L2; experiment 2
As shown below, each of these compounds has a reported inhibition at 10 µM value.

substance.smiles: CC(C)N1CCN(c2ccc(Nc3ncc4cc5n(c4n3)C3(CCCCC3)CNC5=O)nc2)CC1
measured.on: CDK10/Cyclin L2 (Homo sapiens)
unit.descriptor: %
inhibition at 10 µM: 6.2
//
substance.smiles: CN1CCN(Cc2ccc(NC(=O)Nc3ccc(Oc4ccnc(N)n4)cc3)cc2C(F)(F)F)CC1
measured.on: CDK10/Cyclin L2 (Homo sapiens)
unit.descriptor: %
inhibition at 10 µM: 79.9
//
substance.smiles: CC(C)(C)c1nc(-c2cccc(NS(=O)(=O)c3c(F)cccc3F)c2F)c(-c2ccnc(N)n2)s1
measured.on: CDK10/Cyclin L2 (Homo sapiens)
unit.descriptor: %
inhibition at 10 µM: 22.4
//
substance.smiles: CCc1cnn2c(NCc3ccc[n+]([O-])c3)cc(N3CCCC[C@H]3CCO)nc12
measured.on: CDK10/Cyclin L2 (Homo sapiens)
unit.descriptor: %
inhibition at 10 µM: 72.2
//
substance.smiles: COc1ccccc1-c1cc(Nc2cccc(CS(N)(=O)=O)c2)ncn1
measured.on: CDK10/Cyclin L2 (Homo sapiens)
unit.descriptor: %
inhibition at 10 µM: 3.1
//
substance.smiles: CN1CCN(c2ccc(Nc3ncc4cc(C#N)c(=O)n(C5CCCC5)c4n3)cc2)CC1
measured.on: CDK10/Cyclin L2 (Homo sapiens)
unit.descriptor: %
inhibition at 10 µM: 0.3
//
substance.smiles: Cn1cc(-c2ccc(-c3cncc(Cl)c3N3CCC4(CCNC4=O)CC3)cc2)cn1
measured.on: CDK10/Cyclin L2 (Homo sapiens)
unit.descriptor: %
inhibition at 10 µM: 16.1
//
substance.smiles: CNC(=O)c1nn(C)c2c1C(C)(C)Cc1cnc(Nc3ccc(N4CCN(C)CC4)cc3)nc1-2
measured.on: CDK10/Cyclin L2 (Homo sapiens)
unit.descriptor: %
inhibition at 10 µM: 28.9

Taken from paper PMC7265341.
